Values from patent US20180265515A1

Target: isolated recombinant JAK1 kinase domain (Homo sapiens, UniProt P23458)
Construct: The activity of the isolated recombinant JAK1 and JAK2 kinase domain was measured
Sequence (P23458 875-1153 limits assumed): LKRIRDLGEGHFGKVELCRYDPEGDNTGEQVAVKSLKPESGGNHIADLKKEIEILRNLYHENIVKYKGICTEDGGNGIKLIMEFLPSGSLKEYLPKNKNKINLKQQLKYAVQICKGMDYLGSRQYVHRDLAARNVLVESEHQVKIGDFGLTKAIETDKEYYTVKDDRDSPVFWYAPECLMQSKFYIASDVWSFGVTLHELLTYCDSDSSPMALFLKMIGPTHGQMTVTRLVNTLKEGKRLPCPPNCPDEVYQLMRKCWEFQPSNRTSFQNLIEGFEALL
Experiment: JAK1 enzyme assay (Caliper LabChip, Ki)
Assay type: biochemical
Conditions: recombinant JAK1 kinase domain, 25 μM ATP
Give measured pKi for each item. Keep answers brief.
One number for each entry, as −log10 of the molar value.

Give its pKi value. Item: CSc1ccc(OC(F)F)c(-c2nn(CCN[C@H]3C[C@H](O)C3)cc2NC(=O)c2cnn3cccnc23)c1
9.55

Give its pKi value. Item: CSc1ccc(OC(F)F)c(-c2nn(CC(=O)N3CCN([C@H]4CC[C@@H](C#N)CC4)CC3)cc2NC(=O)c2cnn3cccnc23)c1
9.42

Give its pKi value. Item: CCN1CCN(C(=O)Cn2cc(NC(=O)c3cnn4cccnc34)c(-c3cc(SC(C)C)ccc3OC(F)F)n2)CC1
9.15

Give its pKi value. Item: CC(C)Sc1ccc(OC(F)F)c(-c2nn(CC(=O)N3CCN(C4CCOC4)CC3)cc2NC(=O)c2cnn3cccnc23)c1 (centres unmarked)
9.24

Give its pKi value. Item: CC(C)(C#N)CNC1CCN(C(=O)Cn2cc(NC(=O)c3cnn4cccnc34)c(-c3cc(SC4CC4)ccc3OC(F)F)n2)CC1
9.55

Please state pKi for every compound in the list that follows.
1. CSc1ccc(OC(F)F)c(-c2nn(CC(=O)N3CCC(N(C)CCC(=O)N4CCC4)CC3)cc2NC(=O)c2cnn3cccnc23)c1
2. CSc1ccc(OC(F)F)c(-c2nn(CC(=O)N3CCC(N4CC[S+]([O-])CC4)CC3)cc2NC(=O)c2cnn3cccnc23)c1
3. CC(C)Sc1ccc(OC(F)F)c(-c2nn(CC(=O)N3CCC(N4CCCC(C#N)C4)CC3)cc2NC(=O)c2cnn3cccnc23)c1 (centres unmarked)
4. CSc1ccc(OC(F)F)c(-c2nn(CC(=O)N3CCC(CN4CCNCC4)CC3)cc2NC(=O)c2cnn3cccnc23)c1
5. CC(C)Sc1ccc(OC(F)F)c(-c2nn(CC(=O)N3CCC(NCC(C)(C)C#N)CC3)cc2NC(=O)c2cnn3cccnc23)c1

[9.33, 9.54, 9.12, 9.43, 9.40]

Please state pKi for every compound in the list that follows.
1. CSc1ccc(OC(F)F)c(-c2nn(CC(=O)N3CCC(N4CCOCC4CO)CC3)cc2NC(=O)c2cnn3cccnc23)c1 (centres unmarked)
2. CN1CCC[C@@H]1Cn1cc(NC(=O)c2cnn3cccnc23)c(-c2cc(SC3COC3)ccc2OC(F)F)n1
3. CSc1ccc(OC(F)F)c(-c2nn(CC(=O)N3CCC(N4CCN(C)C(=O)C4)CC3)cc2NC(=O)c2cnn3cccnc23)c1
4. CNC(=O)[C@@H]1CCCN1C1CCN(C(=O)Cn2cc(NC(=O)c3cnn4cccnc34)c(-c3cc(SC(C)C)ccc3OC(F)F)n2)CC1
5. CNC(=O)[C@@H]1CCCN1C1CCN(C(=O)Cn2cc(NC(=O)c3cnn4cccnc34)c(-c3cc(SC)ccc3OC(F)F)n2)CC1
6. O=C(Nc1cn(CC(=O)N2CCC(CN3CCOCC3)CC2)nc1-c1cc(SC2COC2)ccc1OC(F)F)c1cnn2cccnc12
7. COC(=O)N1CCN(CC2CCN(C(=O)Cn3cc(NC(=O)c4cnn5cccnc45)c(-c4cc(SC5CC5)ccc4OC(F)F)n3)CC2)CC1
8. N#CC1(CNC2CCN(C(=O)Cn3cc(NC(=O)c4cnn5cccnc45)c(-c4cc(SC5CC5)ccc4OC(F)F)n3)CC2)CC1

1. 9.48
2. 9.42
3. 9.62
4. 9.22
5. 9.54
6. 9.19
7. 9.48
8. 9.54
